target: human MetAP2 enzyme (Homo sapiens); test: MetAP2 enzyme assay, enzyme complexed with manganese ions; conditions: MetAP2 Mn pIC50, MetAP2 enzyme complexed with manganese ions; Met-AMC substrate at Km
metric.name: IC50
Number first, unit second: that is the form wanted.

QUERY: Look up human MetAP2 enzyme (Homo sapiens) data: IC50 of `NC(=O)Cn1cc(-c2cc(C(F)(F)F)cc3[nH]ncc23)cn1` , then report it.
RESULT: 6.31 nM

QUERY: Look up human MetAP2 enzyme (Homo sapiens) data: IC50 of `Cn1cc(-c2cc(C(F)(F)F)cc3[nH]ncc23)c(=O)n(CCN2CCOCC2)c1=O` , then report it.
RESULT: 25.1 nM

QUERY: Look up human MetAP2 enzyme (Homo sapiens) data: IC50 of `COc1nc(C#N)ccc1-c1cc(C(F)(F)F)cc2[nH]ncc12` , then report it.
RESULT: 12.6 nM

QUERY: Look up human MetAP2 enzyme (Homo sapiens) data: IC50 of `CNC(=O)c1ccc(-c2cc(C(F)(F)F)cc3[nH]ncc23)cc1` , then report it.
RESULT: 3.16 nM

QUERY: Look up human MetAP2 enzyme (Homo sapiens) data: IC50 of `Cc1[nH]c(=O)ccc1-c1cc(C(F)(F)F)cc2[nH]ncc12` , then report it.
RESULT: 3.98 nM

---

target: human MetAP2 enzyme (Homo sapiens, UniProt P50579); experiment: MetAP2 enzyme assay, enzyme complexed with cobalt ions; details: MetAP2 Co pIC50, MetAP2 enzyme complexed with cobalt ions; Met-AMC substrate at Km
Sequence (P50579 whole entry): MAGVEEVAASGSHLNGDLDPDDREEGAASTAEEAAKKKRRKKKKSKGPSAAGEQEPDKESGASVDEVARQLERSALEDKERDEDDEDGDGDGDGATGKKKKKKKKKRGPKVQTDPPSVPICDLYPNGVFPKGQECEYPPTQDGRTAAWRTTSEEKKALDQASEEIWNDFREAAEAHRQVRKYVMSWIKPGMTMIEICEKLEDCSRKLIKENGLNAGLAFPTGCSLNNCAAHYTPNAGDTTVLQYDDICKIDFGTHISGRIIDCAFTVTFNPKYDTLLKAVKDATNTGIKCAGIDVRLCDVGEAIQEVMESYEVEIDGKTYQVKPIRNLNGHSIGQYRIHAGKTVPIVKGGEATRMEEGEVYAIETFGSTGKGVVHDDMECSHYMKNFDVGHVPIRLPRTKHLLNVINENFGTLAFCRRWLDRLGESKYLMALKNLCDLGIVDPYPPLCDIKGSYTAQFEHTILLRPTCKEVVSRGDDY
pIC50: −log10 of the molar value.
Label scheme for pIC50: lower than 7 is false (0), 7 and above is true (1).

QUERY: Threshold query (pIC50 >= 7) on NCC(O)c1ccccc1-c1cc(C(F)(F)F)cc2[nH]ncc12 (stereo not drawn)
RESULT: false (0)

QUERY: Threshold query (pIC50 >= 7) on `FC(F)(F)c1cc(-c2ccc3scnc3c2)c2cn[nH]c2c1`
RESULT: true (1)

QUERY: Threshold query (pIC50 >= 7) on Cc1ccc(C(=O)N2CCC(CO)C2)cc1-c1cc(C(F)(F)F)cc2[nH]ncc12 (stereo not drawn)
RESULT: true (1)

QUERY: Threshold query (pIC50 >= 7) on `Nc1ncc(-c2cc(C(F)(F)F)cc3[nH]ncc23)c2cccnc12`
RESULT: true (1)

QUERY: Threshold query (pIC50 >= 7) on `O=C1COc2c(cccc2-c2cc(C(F)(F)F)cc3[nH]ncc23)N1`
RESULT: true (1)

QUERY: Threshold query (pIC50 >= 7) on `FC(F)(F)c1cc(-c2cccc3ncccc23)c2cn[nH]c2c1`
RESULT: true (1)

---

Can you tell me pIC50 for the items I'm about to list?
target: human MetAP2 enzyme (Homo sapiens, UniProt P50579); test: MetAP2 enzyme assay, enzyme complexed with cobalt ions; settings: MetAP2 Co pIC50, MetAP2 enzyme complexed with cobalt ions; Met-AMC substrate at Km
The scale used: pIC50 is minus the common logarithm of the concentration in molar units.

QUERY: Give the reported value of pIC50 for this record: `Cc1nn(CC(=O)N2CCOCC2)cc1-c1cc(C(F)(F)F)cc2[nH]ncc12`
RESULT: 7.20

QUERY: Give the reported value of pIC50 for this record: Cc1c(-c2cc(C(F)(F)F)cc3[nH]ncc23)cnn1-c1ccccc1 [Example 70]
RESULT: 7.40

QUERY: Give the reported value of pIC50 for this record: `COc1nc(C(=O)N2CC(O)C2)ccc1-c1cc(C(F)(F)F)cc2[nH]ncc12`
RESULT: 7.50

QUERY: Give the reported value of pIC50 for this record: `Cc1nc(N)ccc1-c1cc(C(F)(F)F)cc2[nH]ncc12`
RESULT: 7.60

QUERY: Give the reported value of pIC50 for this record: `COc1ccc(-c2cc(C(F)(F)F)cc3[nH]ncc23)c(CO)c1`
RESULT: 7.30

QUERY: Give the reported value of pIC50 for this record: `COc1ccc(C(=O)N2CCOCC2)cc1-c1cc(C(F)(F)F)cc2[nH]ncc12`
RESULT: 7.40

QUERY: Give the reported value of pIC50 for this record: `Cc1cc(=O)n(C)cc1-c1cc(C(F)(F)F)cc2[nH]ncc12`
RESULT: 7.20

QUERY: Give the reported value of pIC50 for this record: `COc1ncc(-c2cc(C(F)(F)F)cc3[nH]ncc23)cc1C(N)=O`
RESULT: 7.20

QUERY: Give the reported value of pIC50 for this record: `FC(F)(F)c1cc(-c2cnn(Cc3cccnc3)c2)c2cn[nH]c2c1`
RESULT: 7.40

Cited source: patent US9434743B2
